Experiment: RPMI8226 myeloma cell viability, profiling panel, resazurin fluorescence, basal, 24 h, PK04 Diversity Set (AID 1180);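 note: RPMI8826 multiple myeloma cell line at 5000 cells per well; test concentration not given here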
Conditions: higher = more signal
PARAMETER: z-score
Form rule: numeric answer, no unit written next to it.

COMPOUND: CO[C@H]1O[C@H](CO)[C@@H](OC(=O)Nc2ccc(C(F)(F)F)cc2)[C@H](OC(=O)Nc2ccc3c(c2)OCO3)[C@@H]1OC(=O)Nc1ccc2c(c1)OCO2
ENDPOINT_RESULT: -1.97

Could you share which z-score value was measured for CN1C(=O)C2C=CC(C(O)C3CC=CCC3)N(N(c3ccccc3)c3ccccc3)C2C1=O (centres undefined) ?
-1.06

// returns reported z-score for input `C=C[C@H](CO)NS(=O)(=O)c1ccc(Br)cc1`
0.0112

Suppose we examine the compound `CCC[C@@H]1C[C@@]1(CCC)[C@@H](NC(=O)c1ccccc1)c1cccc(Cl)c1` ; what z-score value has been reported?
1.09

Which z-score value belongs to `COCCOC(=O)N1C(=O)[C@@]2(c3cc(C#CCC(C(=O)OC)C(=O)OC)ccc31)[C@H](C(=O)Nc1nc3ccccc3s1)[C@H]1C(=O)O[C@H](c3ccccc3)[C@H](c3ccccc3)N1[C@@H]2c1ccccc1OCCO` ?
-0.39

Record request: z-score value, item CCC(CC)C(O)C1C=CC2C(=O)NC(=O)C2N1Nc1ccc(Cl)cc1Cl (centres undefined)
-1.52

Would you kindly share the measured z-score for `[N-]=[N+]=NCc1ccccc1C[C@]1(C(N)=O)COC(c2ccc(OCCCO)cc2)=N1` ?
0.399

Which z-score is listed for CC(C)c1ccc(NN2C(C(O)c3ccc(B(O)O)cc3)C=CC3C(=O)N(c4ccccc4)C(=O)C32)cc1 (centres undefined) ?
-0.948

Using the record for `COc1ccc(C#Cc2ccc3c(c2)[C@]2(C(=O)N3)[C@H](C(=O)Nc3nc4ccccc4s3)[C@H]3C(=O)O[C@H](c4ccccc4)[C@H](c4ccccc4)N3[C@@H]2c2ccc(O)cc2)cc1` , report its z-score.
0.338

Query (compound): `NCCCCCNC(=O)[C@@H]1C[C@@H]2C(=O)N[C@@H](Cc3ccccc3)C(=O)N2[C@@H]1c1ccc(O)cc1` ; field requested: z-score
0.15

Reported z-score for CCCCCN1CC=CC23O[C@@H]4C=CCCOC(=O)C4[C@H]2C(=O)N(CCCCCO)[C@@H]3C1=O (some centres undefined) : what is it?
0.802

Record request: z-score value, item `CCCC[C@@H]1C[C@H]1[C@@H](NC(=O)c1cccs1)c1ccc(-c2ccccc2)cc1`
0.661

# z-score lookup, item `COc1ccc([Si](C)(C)[C@H]2[C@H](CC(=O)N3Cc4ccccc4C[C@H]3CO)O[C@@]3(C(=O)N(Cc4cccc(N5CCC5=O)c4)c4ccccc43)[C@@H]2C)cc1`
-2.01

Which z-score is listed for `COCCOC(=O)N1C(=O)[C@@]2(c3cc(C#CCC(C(=O)OC)C(=O)OC)ccc31)[C@H](C(=O)N1CCN(c3ncccn3)CC1)[C@H]1C(=O)O[C@H](c3ccccc3)[C@H](c3ccccc3)N1[C@@H]2c1ccccc1OCCO` ?
-0.5

###

Test: P. aeruginosa biofilm formation inhibitors, primary screen, PAO1 strain, BacTiter-Glo luminescence, LB-PBS (AID 1144)
Settings: 12 h, higher = more signal
Recorded z-score for the following compounds
Lab note: jot down the number only; don't add units.

Would you mind telling me what z-score value was observed for O=C1C2C=CC(C(O)c3cccc4ccccc34)N(Nc3ccccc3F)C2C(=O)N1c1ccccc1 (centres undefined) ?
-0.732

For the compound CC1(C)[C@@H]2CC(C(O)C3C=CC4C(=O)N(c5ccccc5)C(=O)C4N3Nc3ccc([N+](=O)[O-])cc3)=C[C@H]1C2 (some centres undefined) , what z-score is on record?
-0.88

Would you kindly share the measured z-score for `COc1cc(COC(C)=O)ccc1OC(C)=O` ?
-1.48

Give its z-score value. Item: `COCCOC(=O)N1C(=O)[C@@]2(c3cc(C#CCNC(N)=O)ccc31)[C@H](C(=O)N1CCN(c3ncccn3)CC1)[C@H]1C(=O)O[C@H](c3ccccc3)[C@H](c3ccccc3)N1[C@@H]2c1ccc(OCCO)cc1`
-0.82

###

Target: Calmodulin-1 (Homo sapiens) (UniProt P0DP23)
Test: CALM1 binders on microarrays, EGTA buffer, profiling panel, biochemical, small-molecule microarray, Cy5-labelled CALM1 (AID 1111);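 note: labelled calmodulin applied in Tris saline Tween buffer holding calcium plus EGTA and DTT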
Settings: Cy5-CALM1 binding fluorescence, higher = more signal
PARAMETER: composite z-score

Below: 3 compounds and their reported composite z-score.
SMILES_INPUT: COc1cc2c(cc1OC)CN(C(=O)[C@H]1[C@@H]3C(=O)O[C@@H](c4ccccc4)[C@@H](c4ccccc4)N3[C@@H](c3ccc(O)cc3)[C@]13C(=O)Nc1ccccc13)CC2
ASSAY_SYSTEM: Calmodulin-1 (Homo sapiens) (UniProt P0DP23)
composite z-score: 0.92
//
SMILES_INPUT: O=C1c2ccccc2[C@](Cc2ccccc2I)(C(=O)NCCN2CCOCC2)[C@H](c2ccc(CO)cc2)N1C1CCCCC1
ASSAY_SYSTEM: Calmodulin-1 (Homo sapiens) (UniProt P0DP23)
composite z-score: 1.13
//
SMILES_INPUT: C=CCNC(=O)[C@@H]1[C@H]2C(=O)O[C@H](c3ccccc3)[C@H](c3ccccc3)N2[C@H](c2ccc(OCCO)cc2)[C@@]12C(=O)Nc1ccc(C#CCC(C(=O)OC)C(=O)OC)cc12
ASSAY_SYSTEM: Calmodulin-1 (Homo sapiens) (UniProt P0DP23)
composite z-score: 0.263

Report composite z-score for `CCCC[C@@H]1C[C@H]1[C@@H](NC(=O)c1ccco1)c1ccccc1C(F)(F)F` please.
1.75

Sample `COCCOC(=O)N1C(=O)[C@@]2(c3cc(C#CCCO)ccc31)[C@H](C(N)=O)[C@H]1C(=O)O[C@H](c3ccccc3)[C@H](c3ccccc3)N1[C@@H]2c1ccc(O)cc1` — what was its composite z-score?
-0.0162

Given the compound `COc1ccc(CCNC(=O)[C@@]2(C)c3ccccc3C(=O)N(C(C)C)[C@H]2c2ccc(CO)cc2)cc1` , what is its reported composite z-score?
-0.118

###

Assay: basal 3T3-L1 adipocyte mitochondrial potential changes, profiling panel, cell-based, JC-1 fluorescence, 3T3-L1 adipocytes, 24 h, 100 nL compound (AID 1168); note: test concentration not given here
Details: JC-1 mitochondrial fluorescence, higher = more signal, called active from +8 up or from −8 down
The source made the active and inactive calls.
PARAMETER: z-score

// below: answered compounds
SMILES_INPUT: COC(=O)[C@@]1(Cc2ccc(OC)cc2)[C@H]2c3cc(C(=O)N(C)C)n(Cc4ccccn4)c3C[C@H]2CN1C(=O)c1ccccc1
z-score: -1.46 (inactive)

SMILES_INPUT: COC(=O)C(CC#Cc1ccc2c(c1)[C@]1(C(=O)N2)[C@H](C(=O)Nc2nc3ccccc3s2)[C@H]2C(=O)O[C@H](c3ccccc3)[C@H](c3ccccc3)N2[C@@H]1c1ccccc1OCCO)C(=O)OC
z-score: -0.502 (inactive)

Attention now turns to another entry.
I have this compound here, `COc1cc2c(cc1OC)CN(C(=O)[C@@H]1[C@H]3C(=O)O[C@H](c4ccccc4)[C@H](c4ccccc4)N3[C@H](c3ccc(O)cc3)[C@@]13C(=O)Nc1ccccc13)CC2` , and I need its recorded z-score.
0.382 (inactive)

###

Listed compounds paired with reported z-score
Assay: HepG2 liver cancer cell viability effects, profiling panel, resazurin fluorescence, 24 h, PK04 Diversity Set (AID 1172); note: test concentration not given here
Settings: higher = more signal
Answer with a number only.

Reference set (3 entries):
SMILES_INPUT: [N-]=[N+]=Nc1ccccc1[C@@H]1OC(c2ccc(OCCCO)cc2)=N[C@]1(Cc1ccccc1)C(=O)N1CCOCC1
PARAMETER: z-score
ENDPOINT_RESULT: -0.601
//
SMILES_INPUT: COc1ccc([Si](C)(C)[C@H]2[C@H](CCO)O[C@@]3(C(=O)N(Cc4ccc(N(C=O)c5ccccc5)cc4)c4ccccc43)[C@@H]2C)cc1
PARAMETER: z-score
ENDPOINT_RESULT: -1.57
//
SMILES_INPUT: C=C(CCCC)/C(=C/C[C@H](OC(=O)c1ccncc1)c1ccccc1OCCO)c1cnc2ccccc2c1
PARAMETER: z-score
ENDPOINT_RESULT: 0.381

Now for another entry.
Quick check: z-score of `CCCC[C@@H]1C[C@H]1[C@@H](NC(=O)C(C)(C)C)c1ccc(C(F)(F)F)cc1` ?
-0.549

###

Biological target: Neurogenic locus notch homolog protein 2 (Homo sapiens)
Assay: Notch2 binders on small-molecule microarrays, primary screen, biochemical, small-molecule microarray, 635 nm fluorescence, stem cell growth factors (AID 1073)
Conditions: Notch2 binding, higher = more signal
In this section we review reported composite z-score values for a set of compounds.
# output: bare number, no unit

See these solved cases before continuing.
SMILES_INPUT: COc1cccc(-c2cccc(=O)o2)c1
composite z-score: 0.0405
--
SMILES_INPUT: C=CC[C@@]1(C(=O)NCCN2CCOCC2)N=C(c2ccc(OCCCO)cc2)O[C@@H]1c1ccccc1N=[N+]=[N-]
composite z-score: 0.322
--
SMILES_INPUT: COC(=O)C(CC#Cc1ccc2c(c1)[C@]1(C(=O)N2)[C@H](C(=O)Nc2nc3ccccc3s2)[C@H]2C(=O)O[C@H](c3ccccc3)[C@H](c3ccccc3)N2[C@@H]1c1ccc(O)cc1)C(=O)OC
composite z-score: 1.33

Query compound follows.
Can you look up the measured composite z-score of `[N-]=[N+]=Nc1ccccc1[C@@H]1OC(c2ccc(OCCCO)cc2)=N[C@]1(Cc1ccccc1)C(=O)N1CCOCC1` for me?
1.55
